The values you see were collected from patent US20140295512A1.

Listed next: entries and their corresponding kcat NADH.
- assay_details: KARI assay of purified S. exigua KARI and variants with NADH (Examples 6-9)
- Format: biochemical
Respond numerically; units are s⁻¹ and should not be typed.

Reference set, count: 5
molecule	kcat NADH [s⁻¹]
Se1_KARI^HF2-his6: S. exigua KARI variant S61C (protein, UniProt D0WGK0 1-342, looked up, variant S61C, His6 tag, S. exigua KARI variant S61C) Ketol-acid reductoisomerase …: MSVKTKEKEMAVTILYEQDVDPKVIQGLKVGIIGYGSQGHAHALNLMDSGVDVRVGLREGCSSWKTAEEAGLKVTDMDTAAEEADVIMVLVPDEIQPKVYQEHIAAHLKAGNTLAFAHGFNIHYGYIVPPEDVNVIMCAPKGPGHIVRRQFTEGSGVPDLACVQQDATGNAWDIVLSYCWGVGGARSGIIKATFAEETEEDLFGEQAVLCGGLVELVKAGFETLTEAGYPPELAYFECYHEMKMIVDLMYESGIHFMNYSISNTAEYGEYYAGPKVINEQSREAMKEILKRIQDGSFAQEFVDDCNNGHKRLLEQREAINTHPIETTGAQIRSMFSWIKKED	0.45
Se1_KARI^1A8: S. exigua KARI variant G60V, I95V, V99L (protein, UniProt D0WGK0 1-342, looked up, variant G60V I95V V99L) Ketol-acid reductoisomerase …: MSVKTKEKEMAVTILYEQDVDPKVIQGLKVGIIGYGSQGHAHALNLMDSGVDVRVGLREVSSSWKTAEEAGLKVTDMDTAAEEADVIMVLVPDEVQPKLYQEHIAAHLKAGNTLAFAHGFNIHYGYIVPPEDVNVIMCAPKGPGHIVRRQFTEGSGVPDLACVQQDATGNAWDIVLSYCWGVGGARSGIIKATFAEETEEDLFGEQAVLCGGLVELVKAGFETLTEAGYPPELAYFECYHEMKMIVDLMYESGIHFMNYSISNTAEYGEYYAGPKVINEQSREAMKEILKRIQDGSFAQEFVDDCNNGHKRLLEQREAINTHPIETTGAQIRSMFSWIKKED	0.65
Se1_KARI^4E10: S. exigua KARI variant L57V, R58P, S61C (protein, UniProt D0WGK0 1-342, looked up, variant L57V R58P S61C) Ketol-acid reductoisomerase …: MSVKTKEKEMAVTILYEQDVDPKVIQGLKVGIIGYGSQGHAHALNLMDSGVDVRVGVPEGCSSWKTAEEAGLKVTDMDTAAEEADVIMVLVPDEIQPKVYQEHIAAHLKAGNTLAFAHGFNIHYGYIVPPEDVNVIMCAPKGPGHIVRRQFTEGSGVPDLACVQQDATGNAWDIVLSYCWGVGGARSGIIKATFAEETEEDLFGEQAVLCGGLVELVKAGFETLTEAGYPPELAYFECYHEMKMIVDLMYESGIHFMNYSISNTAEYGEYYAGPKVINEQSREAMKEILKRIQDGSFAQEFVDDCNNGHKRLLEQREAINTHPIETTGAQIRSMFSWIKKED	0.90
Se1_KARI^2C6: S. exigua KARI variant L57V, R58P (protein, UniProt D0WGK0 1-342, looked up, variant L57V R58P) Ketol-acid reductoisomerase …: MSVKTKEKEMAVTILYEQDVDPKVIQGLKVGIIGYGSQGHAHALNLMDSGVDVRVGVPEGSSSWKTAEEAGLKVTDMDTAAEEADVIMVLVPDEIQPKVYQEHIAAHLKAGNTLAFAHGFNIHYGYIVPPEDVNVIMCAPKGPGHIVRRQFTEGSGVPDLACVQQDATGNAWDIVLSYCWGVGGARSGIIKATFAEETEEDLFGEQAVLCGGLVELVKAGFETLTEAGYPPELAYFECYHEMKMIVDLMYESGIHFMNYSISNTAEYGEYYAGPKVINEQSREAMKEILKRIQDGSFAQEFVDDCNNGHKRLLEQREAINTHPIETTGAQIRSMFSWIKKED	0.55
Se1_KARI^14B7: S. exigua KARI variant Y35H, S63D, I95V (protein, UniProt D0WGK0 1-342, looked up, variant Y35H S63D I95V) Ketol-acid reductoisomerase …: MSVKTKEKEMAVTILYEQDVDPKVIQGLKVGIIGHGSQGHAHALNLMDSGVDVRVGLREGSSDWKTAEEAGLKVTDMDTAAEEADVIMVLVPDEVQPKVYQEHIAAHLKAGNTLAFAHGFNIHYGYIVPPEDVNVIMCAPKGPGHIVRRQFTEGSGVPDLACVQQDATGNAWDIVLSYCWGVGGARSGIIKATFAEETEEDLFGEQAVLCGGLVELVKAGFETLTEAGYPPELAYFECYHEMKMIVDLMYESGIHFMNYSISNTAEYGEYYAGPKVINEQSREAMKEILKRIQDGSFAQEFVDDCNNGHKRLLEQREAINTHPIETTGAQIRSMFSWIKKED	0.45

Okay, next one:
Can you share its kcat NADH? I mean this molecule: Se1_KARI^JB7-his6: S. exigua KARI variant S63Q (protein, UniProt D0WGK0 1-342, looked up, variant S63Q, His6 tag, S. exigua KARI variant S63Q) Ketol-acid reductoisomerase …: MSVKTKEKEMAVTILYEQDVDPKVIQGLKVGIIGYGSQGHAHALNLMDSGVDVRVGLREGSSQWKTAEEAGLKVTDMDTAAEEADVIMVLVPDEIQPKVYQEHIAAHLKAGNTLAFAHGFNIHYGYIVPPEDVNVIMCAPKGPGHIVRRQFTEGSGVPDLACVQQDATGNAWDIVLSYCWGVGGARSGIIKATFAEETEEDLFGEQAVLCGGLVELVKAGFETLTEAGYPPELAYFECYHEMKMIVDLMYESGIHFMNYSISNTAEYGEYYAGPKVINEQSREAMKEILKRIQDGSFAQEFVDDCNNGHKRLLEQREAINTHPIETTGAQIRSMFSWIKKED 0.69
